// provenance: ChEMBL document CHEMBL3352021

# experiment-notes: Half life in cynomolgus monkey at 1 mg/kg, iv as bolus dose
# Format: ADME, organism-based, Macaca fascicularis
# Parameters: dose 1 mg/kg, route intravenous
# details: in vivo
The following compounds are shown together with reported half-life values.
Form entry: value (h) — number only.

Reference set (2 entries):
> print(dat)
                              smiles.string   property  observed.value
1  CNC(=O)c1c(O)c2ncc(Cc3ccc(F)cc3)cc2n(CC(=O)N(C)C)c1=O  half-life               5
2  COCCNC(=O)c1c(O)c2ncc(Cc3ccc(F)cc3)cc2n(CC(=O)N(C)C)c1=O  half-life             5.4

Switching to the query record.
Task: I have this compound here, CNC(=O)Cn1c(=O)c(C(=O)NCCOC)c(O)c2ncc(Cc3ccc(F)cc3)cc21 , and I need its recorded half-life.
Result: 2.3

====

Reported bioavailability values follow for various compounds
# experiment-notes: Oral bioavailability in rat at 5 mg/kg
# Format: ADME, organism-based
# details: in vivo
Quick note: number first, unit second.

Here is how some compounds turned out for bioavailability.
> print(dat)
                              smiles.string  observed.value
1  CNC(=O)c1c(O)c2ncc(Cc3ccc(F)cc3)cc2n(CC(=O)N(C)C)c1=O             69%
2  COCCNC(=O)c1c(O)c2ncc(Cc3ccc(F)cc3)cc2n(CC(=O)N(C)C)c1=O             59%

As a next step, examine the compound that follows.
Task: What measured bioavailability goes with CNC(=O)Cn1c(=O)c(C(=O)NCCOC)c(O)c2ncc(Cc3ccc(F)cc3)cc21 ?
Result: 51%

====

# Tested on: Human immunodeficiency virus
# experiment-notes: Antiviral activity against pseudotyped HIV by luciferase reporter gene assay
# Format: functional, organism-based
# details: Human immunodeficiency virus 1
property: IC50 (nM)
Please give a number only; it is taken to be in nM.

> print(dat)
                              smiles.string  observed.value
1  C[C@@H](CO)NC(=O)c1c(O)c2ncc(Cc3ccc(F)cc3)cc2n(CC(=O)N(C)C)c1=O              17
2  CN(C)C(=O)Cn1c(=O)c(C(=O)NC(C)(C)CO)c(O)c2ncc(Cc3ccc(F)cc3)cc21             3.6
3  COCCNC(=O)c1c(O)c2ncc(Cc3ccc(F)cc3)cc2n(CC(=O)NCC(F)(F)F)c1=O             2.4

Task: Test system Human immunodeficiency virus; read-out IC50; what value for CNC(=O)c1c(O)c2ncc(Cc3ccc(F)cc3)cc2n(CC(=O)NC(C)C)c1=O ?
Result: 3.2
